test system: female C57BL/6 mice; test: Protein expression efficiency of fLuc mRNA-LNPs after intramuscular injection (IVIS whole-body luminescence); assay type: in vivo; conditions: fLuc mRNA-LNP, intramuscular injection, luminescence at injection site, after administration, mice
# Total flux annotations
Please give only the number in your answer, with no unit.

What measured Total flux goes with CCCCCCCCCCCOC(=O)CCCCCN(CCCCCCCC(=O)OC(CCCCCCCC)CCCCCCCC)CC(O)CCCCNC(=O)c1ccn(C)c1 (stereo not drawn) ?
8.29E+06

Same read-out for CCCCCCCCCCCOC(=O)CCCCCN(CCCCCCCC(=O)OC(CCCCCCCC)CCCCCCCC)CC(O)CCCCNC(=O)c1cnc(O)n1C (stereo not drawn) ?
6.46E+05

Same read-out for CCCCCCCCCCCOC(=O)CCCCCN(CCCCCCCC(=O)OC(CCCCCCCC)CCCCCCCC)CC(O)CCCCNC(=O)c1ncc[nH]1 (stereo not drawn) ?
2.62E+06
